meta.source: patent US8927500B2

# TEST TARGET: UniProtKB Q00987
# Sequence (Q00987 1-125): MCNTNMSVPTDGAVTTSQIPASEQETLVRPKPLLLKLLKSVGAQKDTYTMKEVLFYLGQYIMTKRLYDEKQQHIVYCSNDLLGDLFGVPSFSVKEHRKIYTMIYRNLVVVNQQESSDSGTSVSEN
# METHOD: Competitive fluorescence polarization assay for MDM2
# Format: binding
# EXPERIMENTAL PARAMETERS: competitive FP assay, MDM2; read-out: IC50 (MDM2)
pIC50: −log10 of the molar value. Where a SMILES comes first, the peptide text is derived from it. Bridges are numbered along the chain shown (N, C = ends). [ ]: non-standard residue; d: D form. R8 = C=CCCCCCC[C@@](C)(N)C(=O)O; S5 = C=CCCC[C@](C)(N)C(=O)O; Nle = CCCC[C@H](N)C(=O)O

# MOLECULE, pIC50
rows = [
    ("CCCC[C@H](NC(=O)[C@H](C)NC(=O)[C@H](C)NC(=O)[C@]1(C)CCCC=CCCCCCC[C@@](C)(NC(=O)[C@H](Cc2ccccc2)NC(=O)[C@@H](NC(=O)[C@H](CC(C)C)NC(C)=O)[C@@H](C)O)C(=O)N[C@@H](C)C(=O)N[C@@H](Cc2ccc(O)cc2)C(=O)N[C@@H](Cc2c[nH]c3ccccc23)C(=O)N[C@@H](C)C(=O)N[C@@H](CCC(N)=O)C(=O)N[C@@H](CC(C)C)C(=O)N1)C(=O)N[C@@H](C)C(=O)N(C)CC(N)=O (single isomer, unassigned) [compound 410]", "> 8.00"),
    ("CC(=O)N[C@@H](CC(C)C)C(=O)N[C@H](C(=O)N[C@@H](Cc1ccccc1)C(=O)N[C@]1(C)CCCCCCC=CCCC[C@@](C)(C(=O)N[C@@H](C)C(=O)N[C@@H](C)C(=O)N[C@@H](Cc2c[nH]c3ccccc23)C(=O)N[C@H](C)C(N)=O)NC(=O)[C@H](CC(C)C)NC(=O)[C@H](CCC(N)=O)NC(=O)[C@H](C)NC(=O)[C@H](Cc2c[nH]c3ccccc23)NC(=O)[C@H](Cc2ccc(O)cc2)NC(=O)[C@H](C)NC1=O)[C@@H](C)O [compound 211] (Ac-LTF[R8]AYWAQL[S5]AAW[dA]-NH2; staple 4-11)", "> 8.00"),
    ("CCCC[C@H](NC(=O)[C@H](CCC(N)=O)NC(=O)[C@H](CCC(N)=O)NC(=O)[C@]1(C)CCCC=CCCCCCC[C@@](C)(NC(=O)[C@H](Cc2ccccc2)NC(C)=O)C(=O)N[C@@H](C)C(=O)N[C@@H](Cc2ccc(O)cc2)C(=O)N[C@@H](Cc2c[nH]c3ccccc23)C(=O)N[C@@H]([C@@H](C)O)C(=O)N[C@@H](C)C(=O)N[C@@H](CC(C)C)C(=O)N1)C(=O)N[C@@H](C(N)=O)C(C)C [compound 41] (Ac-F[R8]AYWTAL[S5]QQ[Nle][dV]-NH2; staple 2-9)", "6.00 to 7.00"),
    ("CSCC[C@H](NC(=O)[C@H](C)NC(=O)[C@H](CO)NC(=O)[C@]1(C)CCCC=CCCCCCC[C@@](C)(NC(=O)[C@H](Cc2ccccc2)NC(=O)[C@@H](NC(=O)[C@H](CC(C)C)NC(C)=O)[C@@H](C)O)C(=O)N[C@@H](C)C(=O)N[C@@H](Cc2ccc(O)cc2)C(=O)N[C@@H](Cc2c[nH]c3ccccc23)C(=O)N[C@@H](C)C(=O)N[C@@H](CCC(N)=O)C(=O)N[C@@H](CC(C)C)C(=O)N1)C(N)=O [compound 5] (Ac-LTF[R8]AYWAQL[S5]SAM-NH2; staple 4-11)", "7.00 to 8.00"),
]
